Source of measurements: patent US20200131144A1

# Target of assay: LXRα full length (FL) (Homo sapiens)
# Construct: the full length (FL) proteins of LXRα (amino acids 1-447); NP005684
# Sequence (Q13133 whole entry, the tested form may be a part): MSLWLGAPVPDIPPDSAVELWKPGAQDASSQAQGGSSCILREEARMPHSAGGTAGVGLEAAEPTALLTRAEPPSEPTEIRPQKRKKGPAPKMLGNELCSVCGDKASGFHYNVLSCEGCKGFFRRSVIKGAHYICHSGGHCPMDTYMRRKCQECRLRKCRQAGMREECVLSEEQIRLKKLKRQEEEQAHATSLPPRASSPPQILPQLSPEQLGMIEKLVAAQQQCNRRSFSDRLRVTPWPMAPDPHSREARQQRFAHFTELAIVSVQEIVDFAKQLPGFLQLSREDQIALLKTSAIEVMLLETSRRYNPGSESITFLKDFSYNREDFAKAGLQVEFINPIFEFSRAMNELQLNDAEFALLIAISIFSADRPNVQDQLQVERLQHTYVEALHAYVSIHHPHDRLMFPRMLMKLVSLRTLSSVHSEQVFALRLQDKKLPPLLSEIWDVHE
# Measurement notes: LXR Gal4 reporter transient transfection assay, mammalian two-hybrid, FL-M2H Gal4α
# Run conditions: HEK293 cells; inverse agonist unless *
Recorded metric: EC50

Worked cases, EC50 given:
Q: Returns the measured EC50 for the input molecule. Input: COCc1c(C)cc(C)c(CN(Cc2ccc(-c3cccc(C(C)(C)C(=O)O)c3)cc2)Cc2ccc(C(F)(F)F)o2)c1C
Result: < 100 nM

Q: Entry Cc1ccc2ccccc2c1CN(Cc1ccc(C(F)(F)F)o1)Cc1ccc(-c2cncc(S(=O)(=O)CC(=O)O)c2)cc1Cl : reported EC50 = ?
Result: 100 to 1000 nM

Q: Data request, read-out EC50, for CC(C)(C(=O)O)c1cccc(-c2ccc(CN(Cc3ccc(C(F)(F)F)o3)C(=O)c3c4c(nc5ccccc35)CCCC4)cc2)c1
Result: < 100 nM

Q: Quick one: EC50 of Cc1ccc2nc(C)cc(C(=O)N(Cc3ccc(-c4cccc(C(C)(C)C(=O)O)c4)cc3)Cc3ccc(C(F)(F)F)o3)c2c1 ?
Result: < 100 nM

Q: Item COc1cc(-c2cccc(C(C)(C)C(=O)O)c2)ccc1CN(Cc1ccc(C(F)(F)F)o1)C(=O)c1c(C)c(C)nc2cccnc12 has what recorded EC50?
Result: < 100 nM

Q: Need EC50, item Cc1ccc2ccccc2c1C(=O)N(Cc1ccc(-c2cccc(S(=O)(=O)CC(=O)O)c2)cc1)Cc1ccc(C(F)(F)F)[nH]1
Result: 1000 to 10000 nM

---
Q: For CCc1cc(C)c(CN(Cc2ccc(-c3cccc(C(C)(C)C(=O)O)c3)cc2)Cc2ccc(C(F)(F)F)o2)c(C)c1 , what is its reported EC50?
Result: < 100 nM
